The following sequences are listed with their measured folding stability dG unfold values.
# METHOD_NOTES: folding stability dG unfold (combined trypsin and chymotrypsin); higher = more stable
Response body: numeric value in kcal/mol, unit text excluded.

Guide cases for folding stability dG unfold, answers given:
[
  {
    "PRIMARY_SEQUENCE": "SAGGSAGGMKVYEIEVPPSSGLTPEEIRARVREEIEASNNAPVEVTVEVDPNGRLTVTIKITPLSAGGSAGG [r6_819_JUSTAS]",
    "UNIT_ABBREVIATION": "kcal/mol",
    "folding stability dG unfold": 1.49
  },
  {
    "PRIMARY_SEQUENCE": "SAGGASLDDLPLEGIEVLEEEVIPLPNGSTLRKFLVKKPSPGPPELLVEVTEFVDEGSSSVSVTPLGSAGGS [r16_469_JUSTAS]",
    "UNIT_ABBREVIATION": "kcal/mol",
    "folding stability dG unfold": 0.0997
  },
  {
    "PRIMARY_SEQUENCE": "SAGGSAGGSAGGWDEIKDILREAGWPVKNVEVQWIPNPENGKPMNSITVSYPDGKKWTIMSAGGSAGGSAGG [r7_337_TrROS]",
    "UNIT_ABBREVIATION": "kcal/mol",
    "folding stability dG unfold": 0.0642
  }
]

Okay, now this sequence:
// lookup folding stability dG unfold for SAGGSAKVKIEVIELPPGMTEEELRKLAEEKGLKVEKVDKENLLVKITAKSKEEAEKIKKELEEKLSAGGSA [r15_546_TrROS_Hall]
0.511
